test: In vitro dissolution simulation experiment, pH 7.4 phosphate buffer; type: physicochemical; conditions: 37° C., 7 h
quantity-kind: Concentration, 7 (h)

molecule	reported-result
CN(C)C(=O)NC1CCC(CCN2CCN(c3cccc(Cl)c3Cl)CC2)CC1 (stereo not shown) [Crystalline form A of cariprazine embonate]	3.9 µg/mL
CN(C)C(=O)NC1CCC(CCN2CCN(c3cccc(Cl)c3Cl)CC2)CC1 (stereo not shown) [Crystalline form B of cariprazine embonate]	2.2 µg/mL
CN(C)C(=O)NC1CCC(CCN2CCN(c3cccc(Cl)c3Cl)CC2)CC1 (stereo not shown) [Crystalline form G of cariprazine embonate]	1.84 µg/mL
CN(C)C(=O)NC1CCC(CCN2CCN(c3cccc(Cl)c3Cl)CC2)CC1 (stereo not shown) [Amorphous cariprazine embonate, cariprazine embonate]	7.08 µg/mL

* * *

experiment: In vitro dissolution simulation experiment, pH 7.4 phosphate buffer; format: physicochemical; settings: 37° C., 24 h

compound	Concentration, 24 (h)
CN(C)C(=O)NC1CCC(CCN2CCN(c3cccc(Cl)c3Cl)CC2)CC1 (stereo not shown) [Crystalline form B of cariprazine embonate]	1700 ng/mL
CN(C)C(=O)NC1CCC(CCN2CCN(c3cccc(Cl)c3Cl)CC2)CC1 (stereo not shown) [Amorphous cariprazine embonate, cariprazine embonate]	9900 ng/mL
CN(C)C(=O)NC1CCC(CCN2CCN(c3cccc(Cl)c3Cl)CC2)CC1 (stereo not shown) [Crystalline form G of cariprazine embonate]	8050 ng/mL
CN(C)C(=O)NC1CCC(CCN2CCN(c3cccc(Cl)c3Cl)CC2)CC1 (stereo not shown) [Crystalline form A of cariprazine embonate]	2500 ng/mL

* * *

test: physchem; conditions: 37 °C, pH 9, aqueous buffer, thermodynamic from solid
quantity-kind: solubility at 24 h

smiles-code	quantity-kind	reported-result
CN(C)C(=O)N[C@H]1CC[C@H](CCN2CCN(c3cccc(Cl)c3Cl)CC2)CC1	solubility at 24 h	1.4 µg/mL

* * *

assay: physchem; conditions: 37 °C, pH 7, aqueous buffer, thermodynamic from solid

compound	solubility at 24 h
CN(C)C(=O)N[C@H]1CC[C@H](CCN2CCN(c3cccc(Cl)c3Cl)CC2)CC1 [Cariprazine, cariprazine]	3.2 µg/mL

* * *

// reported Concentration, 1 (h) for each item listed
test: In vitro dissolution simulation experiment, pH 7.4 phosphate buffer; format: physicochemical; conditions: 37° C., 1 h

molecule	measurement-units	Concentration, 1 (h)
CN(C)C(=O)NC1CCC(CCN2CCN(c3cccc(Cl)c3Cl)CC2)CC1 (stereo not shown) [Amorphous cariprazine embonate, cariprazine embonate]	µg/mL	11.94
CN(C)C(=O)NC1CCC(CCN2CCN(c3cccc(Cl)c3Cl)CC2)CC1 (stereo not shown) [Crystalline form A of cariprazine embonate]	µg/mL	1.0
CN(C)C(=O)NC1CCC(CCN2CCN(c3cccc(Cl)c3Cl)CC2)CC1 (stereo not shown) [Crystalline form B of cariprazine embonate]	µg/mL	5.3
CN(C)C(=O)NC1CCC(CCN2CCN(c3cccc(Cl)c3Cl)CC2)CC1 (stereo not shown) [Crystalline form G of cariprazine embonate]	µg/mL	1.30

* * *

assay: physchem; conditions: 37 °C, pH 3, aqueous buffer, thermodynamic from solid

smiles-code	solubility at 24 h, µg/mL
CN(C)C(=O)N[C@H]1CC[C@H](CCN2CCN(c3cccc(Cl)c3Cl)CC2)CC1	1360

* * *

List of solubility at 24 h values.
assay: physchem; conditions: 37 °C, pH 5, aqueous buffer, thermodynamic from solid
quantity-kind: solubility at 24 h (µg/mL)

compound	reported-result
CN(C)C(=O)N[C@H]1CC[C@H](CCN2CCN(c3cccc(Cl)c3Cl)CC2)CC1.Cl [Cariprazine hydrochloride]	10800
CN(C)C(=O)N[C@H]1CC[C@H](CCN2CCN(c3cccc(Cl)c3Cl)CC2)CC1	243

* * *

experiment: In vitro dissolution simulation experiment, pH 7.4 phosphate buffer; assay type: physicochemical; conditions: 37° C., 5 h
Each entry below carries its reported Concentration, 5 (h).

compound	Concentration, 5 (h)
CN(C)C(=O)NC1CCC(CCN2CCN(c3cccc(Cl)c3Cl)CC2)CC1 (stereo not shown) [Crystalline form G of cariprazine embonate]	2.28 µg/mL
CN(C)C(=O)NC1CCC(CCN2CCN(c3cccc(Cl)c3Cl)CC2)CC1 (stereo not shown) [Crystalline form A of cariprazine embonate]	4.1 µg/mL
CN(C)C(=O)NC1CCC(CCN2CCN(c3cccc(Cl)c3Cl)CC2)CC1 (stereo not shown) [Amorphous cariprazine embonate, cariprazine embonate]	9.58 µg/mL
CN(C)C(=O)NC1CCC(CCN2CCN(c3cccc(Cl)c3Cl)CC2)CC1 (stereo not shown) [Crystalline form B of cariprazine embonate]	5.2 µg/mL
